assayed system: T1, hANGPTL4(26-148)-mFc (Homo sapiens, UniProt Q9BY76)
T1 construct: amino acid residues 26-148 of human ANGPTL4 fused in-line to mouse IgG2a (hANGPTL4-mFc)
T1 sequence (Q9BY76 with tags, fused parts or gaps): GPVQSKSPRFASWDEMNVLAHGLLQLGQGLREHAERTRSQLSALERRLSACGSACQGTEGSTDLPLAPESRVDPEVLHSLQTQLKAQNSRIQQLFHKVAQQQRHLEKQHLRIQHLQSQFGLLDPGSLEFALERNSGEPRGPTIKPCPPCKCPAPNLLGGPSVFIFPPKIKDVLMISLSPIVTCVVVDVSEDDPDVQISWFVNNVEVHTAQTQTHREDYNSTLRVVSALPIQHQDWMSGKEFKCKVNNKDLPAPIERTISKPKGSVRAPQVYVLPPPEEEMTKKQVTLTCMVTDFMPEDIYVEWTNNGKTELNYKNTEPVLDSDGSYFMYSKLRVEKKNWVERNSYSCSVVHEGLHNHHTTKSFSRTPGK
assay name: BIACORE, full mAb or Fab over anti-mFc captured hANGPTL4(26-148)-mFc
Assay type: binding
condition context: pH 5.75, 25° C.
Protocol: Briefly, various concentrations (3.125 nM-100 nM) of anti-hANGPTL4 antibodies (i.e., H1H268 Fab, entire H1H268 mAb, H1H284 Fab, and entire H1H284 mAb) were injected over a low density anti-mFc captured hANGPTL4(26-148)-mFc (˜68±4 RU) surface, or the surface of amino-coupled hANGPTL4(26-406)-His (R&D Systems) (450 RU) or amino-coupled cynomolgus monkey N-terminal region (amino acid residues 1-130 of SEQ ID NO:490) expressed with an C-terminal hexa-histidine tag (MfANGPTL4(1-130)-His) (1,028 RU). […]

| molecule | kd |
| --- | --- |
| H1H268P: anti-hANGPTL4 antibody, hIgG1 isotype, HCVR/LCVR SEQ ID NOs 42/44 (antibody, V domains shown) VH: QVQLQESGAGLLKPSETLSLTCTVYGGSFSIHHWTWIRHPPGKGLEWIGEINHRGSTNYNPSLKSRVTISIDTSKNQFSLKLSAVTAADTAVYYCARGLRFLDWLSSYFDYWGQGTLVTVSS VL: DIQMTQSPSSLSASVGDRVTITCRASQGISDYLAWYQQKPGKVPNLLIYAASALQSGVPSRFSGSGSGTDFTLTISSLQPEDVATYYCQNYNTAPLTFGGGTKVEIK | 0.000138 s⁻¹ |
| H1H284P: anti-hANGPTL4 antibody, hIgG1 isotype, HCVR/LCVR SEQ ID NOs 90/92 (antibody, V domains shown) VH: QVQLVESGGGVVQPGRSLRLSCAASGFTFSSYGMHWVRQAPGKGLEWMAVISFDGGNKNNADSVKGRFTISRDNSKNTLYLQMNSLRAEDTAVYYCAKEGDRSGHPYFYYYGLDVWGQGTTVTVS VL: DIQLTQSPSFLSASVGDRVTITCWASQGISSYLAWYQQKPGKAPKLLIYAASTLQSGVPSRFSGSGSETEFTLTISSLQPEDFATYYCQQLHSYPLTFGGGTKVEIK | 8.91e-05 s⁻¹ |
| H1H284P Fab: Fab fragment of H1H284P prepared by papain digestion (antibody, V domains shown) VH: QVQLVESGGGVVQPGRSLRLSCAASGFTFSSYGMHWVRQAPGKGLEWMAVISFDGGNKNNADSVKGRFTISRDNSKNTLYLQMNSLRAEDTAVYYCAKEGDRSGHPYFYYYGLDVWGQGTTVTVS VL: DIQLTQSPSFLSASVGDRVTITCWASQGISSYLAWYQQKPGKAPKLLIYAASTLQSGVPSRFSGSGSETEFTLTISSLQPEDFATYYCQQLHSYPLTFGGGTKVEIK | 0.0016 s⁻¹ |

Where do the numbers come from? From patent US9120851B2.
